Where these numbers come from: the RNAGym collection of RNA variant scans (doi:10.7554/elife.90254)

B1: LINE1-mini (parent)
chain: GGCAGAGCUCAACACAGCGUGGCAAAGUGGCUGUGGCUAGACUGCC

# Variants of: B1
# assay.overview: self-cleavage, relative activity (ratio to wild type); higher = more cleavage; in vitro, sequencing; the parent is a self-cleaving ribozyme
assay.metric: self-cleavage
Keep it simple and answer with nothing but the number.

Examples with their reported self-cleavage follow.
>>> df
   variant_string  assay_result
0       A11U C13A          0.02
1       A14C G19U           0.1
2       C15U G44A          0.26
3        G1A C45G          0.34
4       G19U U20C          0.76

For this variant ( A12U C13G ), measured self-cleavage is 0.48

For this variant ( C15G U43G ), measured self-cleavage is 0

For this variant ( G19U U32C ), measured self-cleavage is 0.4

For this variant ( G7A G21C ), measured self-cleavage is 0.12

For this variant ( G2U G19C ), measured self-cleavage is 0.03
